- assay remarks: qHTS for Inhibitors of ATXN expression: Validation (AID 588378); further: nearly all actives have a fitted effect of over 75% in size
- condition info: cell-based ATXN2 expression reporter assay, luminescence; series mostly up to 57.1 µM
Records with an inconclusive call do not appear. Active and inactive are the calls of the source. The call rests on the fitted dose curve; in most records, active means well fitted inhibition curve with a large enough effect; inconclusive means small, poorly fitted or top-dose-only effect; inactive means no such curve, though single readings can be large or run the other way.
Permitted responses: active, inactive

Example entries and their recorded answers appear below.
>>> df
                                   compound  assigned_category
0      Clc1ccc(N2CCN(Cc3cc4ccccn4n3)CC2)cc1           inactive
1         O=C1/C(=C/c2ccsc2)CC/C1=C\c1cccs1           inactive
2         Oc1cc(O)cc(/C=C/c2ccc(O)c(O)c2)c1           inactive
3  COc1cc2nc(N3CCN(C(=O)OCc4ccccc4)C(C(=O)NC(C)(C)C)C3)nc(N)c2cc1OC (stereo unspecified)           inactive
4  O=[N+]([O-])c1ccc(CSc2ncnc3c2ncn3[C@@H]2O[C@H](CO)[C@@H](O)[C@H]2O)cc1           inactive

**Q:** What classification did `O=C(c1cc(O)c(O)c([N+](=O)[O-])c1)c1ccccc1F` end up with in this test?
**A:** inactive

**Q:** Assay outcome for CN1C2CC(OC(=O)[C@H](CO)c3ccccc3)CC1C1OC12 (stereo partly specified) : what was it?
**A:** inactive

**Q:** Test call, this compound: `c1cnc2c(c1)ccc1cccnc12`
**A:** active

**Q:** GET /call?item= `CC(=O)SCC[N+](C)(C)C` returns the recorded outcome of this test.
**A:** inactive

**Q:** Fill in: this test's call for `COc1cc2c(CCNC(C)=O)c[nH]c2cc1Cl` is ___
**A:** inactive

**Q:** Recorded call for `NCCCS(=O)(=O)O` ?
**A:** inactive

---

- assay remarks: qHTS for differential inhibitors of proliferation of Plasmodium falciparum line GB4 (AID 1816);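 further: parasite growth measured after 72 h incubation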
- condition info: Plasmodium falciparum GB4 proliferation inhibition; series mostly up to 28.7 µM
Inconclusive results are not listed. Calls of active or inactive are those of the source. Calls come from the whole dose curve; as a rule, active = well fitted curve in the direction sought with a large enough effect; inconclusive = small, poorly fitted or top-dose-only effect, or another doubt; inactive = no such curve, though single readings can be large or run the other way.
Thanks in advance; please answer with one of these: active, inactive

// below: answered compounds
                                   compound  assigned_category
0  NC[C@@H]1O[C@H](C23CC4CC(CC(C4)C2)C3)Cc2c1ccc(O)c2O             active
1               COC1=C(OC)C(=O)c2ccccc2C1=O             active
2                    O=C(O)CCCC[C@@H]1CCSS1           inactive
3        C=CC(N)CCC(=O)O (stereo not given)           inactive
4  COc1cccc(C(=O)NCCN2CCN(c3ccc(Cl)cc3)CC2)c1           inactive

**Q:** Recorded test call requested for Oc1ccc(C2CNCc3sccc32)cc1O (stereo not given)
**A:** active

**Q:** // return assay outcome for `c1cnc2c(c1)ccc1cccnc12`
**A:** active

**Q:** Hi, do you know how `COc1ccccc1CNCCCCCCNCCCCCCCCNCCCCCCNCc1ccccc1OC` came out in this test?
**A:** active

**Q:** How did this test come out for `COc1ccccc1N1CCN(CCCCNS(=O)(=O)c2cccc3c(N(C)C)cccc23)CC1` ?
**A:** active

---

# Potency annotations
- assay remarks: qHTS Assay for Identifying Gametocytocidal Compounds (AID 743244); further: potency means the concentration at half of the fitted maximal effect
- condition info: P. falciparum 3D7 stage III-V gametocytes, alamarBlue, 72 h
Inconclusive results are not listed. Active and inactive are the calls of the source. Calls come from the whole dose curve; as a rule, active = well fitted curve in the direction sought with a large enough effect; inconclusive = small, poorly fitted or top-dose-only effect, or another doubt; inactive = no such curve, though single readings can be large or run the other way.

# annotated cases, reported Potency shown
                                   molecule  observable  experimental_result
0              CN(C)c1ccc(N=NS(=O)(=O)O)cc1     Potency    35500 nM (active)
1      NC(N)=NC(=O)c1nc(Cl)c(N2CCCCCC2)nc1N     Potency      891 nM (active)
2  OCC1O[C@H]([S-])[C@H](O)[C@@H](O)[C@@H]1O.[Au+] (some centres not stated)     Potency     2820 nM (active)
3         O=C1C(SCCO)=C(SCCO)C(=O)c2ccccc21     Potency     1410 nM (active)
4  COc1cc(NC(C)CCCN)c2ncccc2c1 (configuration not stated)     Potency     2150 nM (active)

**Q:** Please look at this molecule and report its Potency: `N.N.N.N.N.N.N.N.N.N.N.N.N.N.O.O.[Ru+4].[Ru+5].[Ru+5]`
**A:** 935 nM (active)

**Q:** Please list Potency recorded for the molecule `NC[C@@H]1O[C@H](C23CC4CC(CC(C4)C2)C3)Cc2c1ccc(O)c2O`
**A:** 1000 nM (active)

**Q:** For the molecule `c1cnc2c(c1)ccc1cccnc12` , give its reported Potency.
**A:** 1870 nM (active)

---

- assay remarks: qHTS assay for measurement of the activity of small molecule inhibitors on Zika virus induced Caspase-3 activity in human iPSC derived neural progenitor cells (hNPCs) (AID 1224857); further: % of control where 0% means no effect; nearly all actives have a fitted effect of over 65% in size
- condition info: hNPCs ZIKV-induced caspase-3/7, Caspase-Glo luminescence, 6 h; series mostly up to 45.7 µM
Inconclusive results are not listed. The source made the active and inactive calls. Calls follow the shape of the dose curve; as a rule, active = well fitted inhibition curve with a large enough effect; inconclusive = small, poorly fitted or top-dose-only effect; inactive = no such curve, though single readings can be large or run the other way.
Please state which outcome applies, choosing from true (1) = active, false (0) = inactive

>>> print(df.to_string())
                                   compound  assigned_category
0  NS(=O)(=O)c1ccc(-n2nc(C(F)(F)F)cc2-c2ccc(Cl)cc2)cc1          false (0)

**Q:** For `O=C(Nc1ccc(C(=O)O)c(O)c1)c1ccccc1` , which call appears in the assay record?
**A:** false (0)

**Q:** How did this test come out for `NCCCS(=O)(=O)O` ?
**A:** false (0)

**Q:** Per the assay record, what outcome was assigned to `CCCCCCCCCCCCCCCCCCN(CCCCCCCCCCCCCCCCCC)CCCN(CCO)CCO` ?
**A:** false (0)

---

- Tested on: Zika virus NS2B-NS3 protease (linked construct)
- assay remarks: Primary screen NINDS Rhodamine qHTS for Zika virus inhibitors (AID 1347160); further: nearly all actives have a fitted effect of over 55% in size
- condition info: purified NS2B-NS3 protease, Rhodamine110 substrate fluorescence; series mostly up to 57.1 µM
Results filed as inconclusive are left out. Activity calls are given as the source filed them. Calls come from the whole dose curve; as a rule, active = well fitted inhibition curve with a large enough effect; inconclusive = small, poorly fitted or top-dose-only effect; inactive = no such curve, though single readings can be large or run the other way.
Give one outcome, nothing more. List: True (active), False (inactive)

Illustrative cases are given below, each with its answer.
In [3]: df
Out[3]:
                            compound_smiles  assigned_category
0  O=[N+]([O-])c1ccc(CNc2nc(NCc3cccc(C(F)(F)F)c3)nc3nc[nH]c23)cc1              False
1        C/C(=N\O)c1ccc(OCC(=O)N2CCCCC2)cc1              False
2         O=c1cc(-c2ccccc2)oc2c(O)c(O)ccc12               True

**Q:** Record lookup: outcome of this test for `O=C(O)[C@H](CC(=O)N1C[C@H]2CCCC[C@H]2C1)Cc1ccccc1` ?
**A:** False

**Q:** Which outcome was assigned to `CC1(C)S[C@@H]2[C@H](NC(=O)[C@H](NC(=O)N3CCN(S(C)(=O)=O)C3=O)c3ccccc3)C(=O)N2[C@H]1C(=O)O` in this test?
**A:** False

---

- assay remarks: Cell Viability - LYMP1-003 - Assay at 40 hr (AID 964); further: nearly all actives have a fitted effect of over 60% in size
- condition info: LYMP1-003 lymphoblastoid viability; series mostly up to 92.2 µM
Inconclusive results are not listed. Calls of active or inactive are those of the source. Calls follow the shape of the dose curve; as a rule, active = well fitted cell-killing curve with a large enough effect; inconclusive = small, poorly fitted or top-dose-only effect; inactive = flat fitted curve, though single readings scatter.
The categories you may choose from are yes = active, no = inactive

>>> print(df.to_string())
                                   compound  assigned_category
0  CN(C)c1ccc(C(=C2C=CC(=[N+](C)C)C=C2)c2ccccc2)cc1                yes
1  CC1(C)S[C@@H]2[C@H](NC(=O)[C@H](N)c3ccccc3)C(=O)N2[C@H]1C(=O)O                 no
2              CN(C)c1ccc(N=NS(=O)(=O)O)cc1                 no
3  COc1cc(/C=C/C(=O)CC(=O)/C=C/c2ccc(O)c(OC)c2)ccc1O                yes

**Q:** What is the recorded call for this compound in the test? CN(C)CCC(c1ccc(Cl)cc1)c1ccccn1 (stereo not drawn)
**A:** no

**Q:** Hey, what did the test say about `Nc1ccc([N+](=O)[O-])cc1O` ?
**A:** no

**Q:** What was the test verdict on `Nc1ccc(O)c(C(=O)O)c1` ?
**A:** no

**Q:** Per the assay record, what outcome was assigned to `CCCCCCCCCCCCCCCCCC(=O)O` ?
**A:** no

**Q:** Look up the recorded call for `Nc1nc2ccc([N+](=O)[O-])cc2s1` in this test.
**A:** no

**Q:** Which result was noted for this compound in the test: `c1ccc2sc(SSc3nc4ccccc4s3)nc2c1`
**A:** no

**Q:** What classification did `NCCO` end up with in this test?
**A:** no

**Q:** Per the records of this test, what outcome belongs to `S=c1[nH]c2ccccc2s1` ?
**A:** no

**Q:** Returns: the outcome recorded for `O=C(O)/C=C\C(=O)O` in this assay.
**A:** no
